measured.on: T1, GHRH receptor (membrane GHRH-receptors on human anterior pituitary cells) (human, UniProt Q02643 23-423)
T1 construct: whole, on cells; Native receptor in membrane fractions prepared from bought human pituitary (National Hormone and Peptide Program), not a recombinant construct; also called pituitary type GHRH-receptor; pGHRH-R
T1 sequence (looked up): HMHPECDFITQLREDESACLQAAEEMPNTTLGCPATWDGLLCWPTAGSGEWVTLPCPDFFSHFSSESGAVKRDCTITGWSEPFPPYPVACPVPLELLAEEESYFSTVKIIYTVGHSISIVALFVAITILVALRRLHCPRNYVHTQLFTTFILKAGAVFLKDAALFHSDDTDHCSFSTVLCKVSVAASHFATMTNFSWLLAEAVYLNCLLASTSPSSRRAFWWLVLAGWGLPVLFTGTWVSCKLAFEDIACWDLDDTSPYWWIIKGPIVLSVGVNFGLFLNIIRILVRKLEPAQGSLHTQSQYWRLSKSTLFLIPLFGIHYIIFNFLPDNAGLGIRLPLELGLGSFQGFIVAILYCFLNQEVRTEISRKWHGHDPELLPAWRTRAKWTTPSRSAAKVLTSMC
assay.method.text: competitive radioligand binding; displacement of 125I-[His1,Nle27]-hGH-RH(1-32)NH2 (0.2 nM) from human pituitary membrane fractions
Procedure: Receptor binding affinities in vitro. Preparation of human pituitary membrane fractions and receptor binding of analogs of GH-RH were performed (Halmos G, Rekasi Z, Szoke B, Schally A V. (1993) Receptor 3:87-97). Human pituitary was purchased from the National Hormone and Peptide Program. […] The values were calculated from technical duplicate tubes. Nineteen new AVR analogs of GHRH were tested in the receptor binding assay. […]
pIC50: −log10 of the molar value. Starred links: 1 amine or outer side, 2 acyl side, 3 side chain; linkers in the order of their positions; H or OH if unused. Non-standard residues stand in square brackets, D forms with d. *: point of attachment. Tyr(Me) = O-methyltyrosine, COc1ccc(C[C@H](N[*:1])C(=O)[*:2])cc1; Phenylacetyl(2,3,4,5,6-F5) = O=C(Cc1c(F)c(F)c(F)c(F)c1F)*; Phe(F5) = N[C@@H](Cc1c(F)c(F)c(F)c(F)c1F)C(=O)O; hArg = N=C(N)NCCCC[C@H](N)C(=O)O; Nle = CCCC[C@H](N)C(=O)O; Orn = NCCC[C@H](N)C(=O)O; Abu = CC[C@H](N)C(=O)O; Ada = not defined here; Amp = not defined here; Cpa = not defined here; PhAc = O=C(Cc1ccccc1)*
quantity: pIC50

Study these solved cases before continuing.
[
  {
    "binder": "{Phenylacetyl(2,3,4,5,6-F5)-Ada}-Y[dR]DAI[Phe(F5)]TA[hArg][Tyr(Me)]RKVL[Abu]QLSARKLLQDI[Nle][dR]-NHMe (reading uncertain) [AVR-235]",
    "experimental.value": 9.31
  },
  {
    "binder": "{Phenylacetyl(2,3,4,5,6-F5)-Ada}-Y[dR]DAI[Phe(F5)]TA[hArg][Tyr(Me)]H[Orn]VL[Abu]QLSAH[Orn]LLQDI[Nle][dR][hArg]-{Ada-NH2} (reading uncertain, Synthetic GHRH antagonist) [AVR-553]",
    "experimental.value": 9.82
  }
]

[A] {Phenylacetyl(2,3,4,5,6-F5)-Ada}-Y[dR]DAI[Cpa]TA[hArg][Phe(F5)]H[Orn]VL[Abu]QLSAH[Orn]LLQDI[Nle][dR][hArg]-{Ada-NH2} (reading uncertain, Synthetic GHRH antagonist) [AVR-552]
[B] {PhAc-Ada}-Y[dR]DAI[Cpa]TAR[Amp]RKVL[Abu]QLSAH[Orn]LLQDI[Nle][dR][hArg]-NHMe (reading uncertain, Synthetic GHRH antagonist) [AVR-201]
Please tell me which of the two, A or B , has the higher reported pIC50 value. Indicate your choice by writing its label.
A
